The origin of these recorded values is PubChem BioAssay AID1963978.

tested on: 616215-338-R-J1-PDC spheroids with HUVEC/MSC, viability; assay: Anticancer human tumor 616215-338-R-J1-PDC patient-derived colon adenocarcinoma cell line growth inhibition [PI3K]; conditions: second compound 0.0316 µM; first compound 0.1 µM; hits give low values
READOUT KIND: viability, T/C (%)
Express the result in % but write the number alone.

Sample records with viability, T/C:
viability, T/C in this record for CC(Cn1ccc(-c2ccc(C#N)c(Cl)c2)n1)NC(=O)c1cc(C(C)O)[nH]n1 (stereo not given) + CC(Nc1ccc2c(c1)OCCn1cc(N3C(=O)OCC3C(F)F)nc1-2)C(N)=O : 105

Please fill in: viability, T/C reported for Cn1ncc(Cl)c1-c1cc(C(=O)NC(CN)Cc2cccc(F)c2)sc1Cl (stereo not given) + CC(Nc1ccc2c(c1)OCCn1cc(N3C(=O)OCC3C(F)F)nc1-2)C(N)=O = 92.2

The reported viability, T/C of the molecule CC(Cn1ccc(-c2ccc(C#N)c(Cl)c2)n1)NC(=O)c1cc(C(C)O)[nH]n1 (stereo not given) + Cc1nc(NC(=O)N2CCCC2C(N)=O)sc1-c1ccnc(C(C)(C)C(F)(F)F)c1 was 101

Form field viability, T/C, entry CC1(C)CCC(CN2CCN(c3ccc(C(=O)NS(=O)(=O)c4ccc(NCC5CCOCC5)c([N+](=O)[O-])c4)c(Oc4cnc5[nH]ccc5c4)c3)CC2)=C(c2ccc(Cl)cc2)C1 + Cc1nc(NC(=O)N2CCCC2C(N)=O)sc1-c1ccnc(C(C)(C)C(F)(F)F)c1 : 98.9

Proceeding to the next molecule to report its viability, T/C.
Documented viability, T/C of C=CC(=O)N1CCN(c2nc(=O)n(-c3c(C)ccnc3C(C)C)c3nc(-c4c(O)cccc4F)c(F)cc23)C(C)C1 (stereo not given) + COc1c(OCCCN2CCOCC2)ccc2c3n(c(=NC(=O)c4cnc(N)nc4)nc12)CCN3 : 85.9

###

test system: 616215-338-R-J1-PDC spheroids with HUVEC/MSC, viability; assay: Anticancer human tumor 616215-338-R-J1-PDC cell line growth inhibition [PI3K]; conditions: second compound 0.01 µM; first compound 0.316 µM; hits give low values;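 note: spheroids exposed to agents for seven days before the viability read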
Quick list: viability, T/C per entry.
Dear colleague, please return just the value in %, with no unit written.

Sample records with viability, T/C:
Please fill in: viability, T/C reported for CCCS(=O)(=O)Nc1ccc(F)c(C(=O)c2c[nH]c3ncc(-c4ccc(Cl)cc4)cc23)c1F + CC(Nc1ccc2c(c1)OCCn1cc(N3C(=O)OCC3C(F)F)nc1-2)C(N)=O = 92.2

Looking up CC(C)NCC(C(=O)N1CCN(c2ncnc3c2C(C)CC3O)CC1)c1ccc(Cl)cc1 (stereo not drawn) + COc1c(OCCCN2CCOCC2)ccc2c3n(c(=NC(=O)c4cnc(N)nc4)nc12)CCN3 , I see its viability, T/C listed as 100

From here, focus on the item given below.
Short answer for CNC(=O)c1ccc(N2C(=S)N(c3ccc(C#N)c(C(F)(F)F)c3)C(=O)C2(C)C)cc1F + CC(Nc1ccc2c(c1)OCCn1cc(N3C(=O)OCC3C(F)F)nc1-2)C(N)=O : viability, T/C was 98.3

###

test system: 616215-338-R-J1-PDC spheroids with HUVEC/MSC, viability; test: Anticancer human tumor 616215-338-R-J1-PDC cell line growth inhibition [PI3K]; details: second compound 0.316 µM; first compound 0.000316 µM; hits give low values;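 note: spheroids exposed to agents for seven days before the viability read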
READOUT KIND: viability, T/C

// solved cases for viability, T/C follow
The reported viability, T/C of the compound CC(C)n1nc(-c2ccc3oc(N)nc3c2)c2c(N)ncnc21 + CC(Nc1ccc2c(c1)OCCn1cc(N3C(=O)OCC3C(F)F)nc1-2)C(N)=O was 96.6%

Reported viability, T/C ( Cn1ncnc1[C@H]1c2n[nH]c(=O)c3cc(F)cc(c23)N[C@@H]1c1ccc(F)cc1 + CC(Nc1ccc2c(c1)OCCn1cc(N3C(=O)OCC3C(F)F)nc1-2)C(N)=O ) = 112%

// viability, T/C lookup, compound = CC(C)n1nc(-c2ccc3oc(N)nc3c2)c2c(N)ncnc21 + CC(Nc1ncnc2nc[nH]c12)c1cc2cccc(Cl)c2c(=O)n1-c1ccccc1 , result: 95.5%

Quick note, viability, T/C for Cn1ncnc1[C@H]1c2n[nH]c(=O)c3cc(F)cc(c23)N[C@@H]1c1ccc(F)cc1 + Cc1nc(NC(=O)N2CCCC2C(N)=O)sc1-c1ccnc(C(C)(C)C(F)(F)F)c1 landed at 92%

For this compound ( Cn1ncnc1[C@H]1c2n[nH]c(=O)c3cc(F)cc(c23)N[C@@H]1c1ccc(F)cc1 + COc1c(OCCCN2CCOCC2)ccc2c3n(c(=NC(=O)c4cnc(N)nc4)nc12)CCN3 ), measured viability, T/C is 45.1%

Entry Cn1ncnc1[C@H]1c2n[nH]c(=O)c3cc(F)cc(c23)N[C@@H]1c1ccc(F)cc1 + CC(Nc1ncnc2nc[nH]c12)c1cc2cccc(Cl)c2c(=O)n1-c1ccccc1 , viability, T/C reported as 98.5%

For this compound ( CC(=O)c1c(C)c2cnc(Nc3ccc(N4CCNCC4)cn3)nc2n(C2CCCC2)c1=O + CC(Nc1ccc2c(c1)OCCn1cc(N3C(=O)OCC3C(F)F)nc1-2)C(N)=O ), measured viability, T/C is 106%

viability, T/C reading for CC(=O)c1c(C)c2cnc(Nc3ccc(N4CCNCC4)cn3)nc2n(C2CCCC2)c1=O + COc1c(OCCCN2CCOCC2)ccc2c3n(c(=NC(=O)c4cnc(N)nc4)nc12)CCN3 : 48.4%

Record summary for CC(=O)c1c(C)c2cnc(Nc3ccc(N4CCNCC4)cn3)nc2n(C2CCCC2)c1=O + Cc1nc(NC(=O)N2CCCC2C(N)=O)sc1-c1ccnc(C(C)(C)C(F)(F)F)c1 : reported viability, T/C = 109%

Lab book: viability, T/C of CC(C)n1nc(-c2ccc3oc(N)nc3c2)c2c(N)ncnc21 + Cc1nc(NC(=O)N2CCCC2C(N)=O)sc1-c1ccnc(C(C)(C)C(F)(F)F)c1 noted as 91.2%

Others:
Summary for this compound, CC(=O)c1c(C)c2cnc(Nc3ccc(N4CCNCC4)cn3)nc2n(C2CCCC2)c1=O + CC(Nc1ncnc2nc[nH]c12)c1cc2cccc(Cl)c2c(=O)n1-c1ccccc1 : viability, T/C is 110%

CC(C)n1nc(-c2ccc3oc(N)nc3c2)c2c(N)ncnc21 + COc1c(OCCCN2CCOCC2)ccc2c3n(c(=NC(=O)c4cnc(N)nc4)nc12)CCN3 yielded viability, T/C of 37.9%

###

test system: 616215-338-R-J1-PDC spheroids with HUVEC/MSC, viability; test: Anticancer human tumor 616215-338-R-J1-PDC cell line growth inhibition [PI3K]; details: second compound 0.316 µM; first compound 1 µM; hits give low values;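 note: spheroids exposed to agents for seven days before the viability read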
A collection of compounds and their measured viability, T/C
# unit: % | format: bare number

Use these answered entries as a reference point.
The reported 616215-338-R-J1-PDC spheroids with HUVEC/MSC, viability viability, T/C of CCN1CCN(Cc2ccc(Nc3ncc(F)c(-c4cc(F)c5nc(C)n(C(C)C)c5c4)n3)nc2)CC1 + Cc1nc(NC(=O)N2CCCC2C(N)=O)sc1-c1ccnc(C(C)(C)C(F)(F)F)c1 is 110

For C=CC(=O)N1CCN(c2nc(=O)n(-c3c(C)ccnc3C(C)C)c3nc(-c4c(O)cccc4F)c(F)cc23)C(C)C1 (stereo unspecified) + COc1c(OCCCN2CCOCC2)ccc2c3n(c(=NC(=O)c4cnc(N)nc4)nc12)CCN3 on 616215-338-R-J1-PDC spheroids with HUVEC/MSC, viability, measured viability, T/C was 47.1

Value sought: viability, T/C, system 616215-338-R-J1-PDC spheroids with HUVEC/MSC, viability, item Cn1nccc1Nc1nccc(-c2ccn(C(CO)c3ccc(Cl)c(F)c3)c(=O)c2)n1 (stereo unspecified) + COc1c(OCCCN2CCOCC2)ccc2c3n(c(=NC(=O)c4cnc(N)nc4)nc12)CCN3 . Result: 13.2

Observed viability, T/C, 616215-338-R-J1-PDC spheroids with HUVEC/MSC, viability, CNC(=O)c1ccc(N2C(=S)N(c3ccc(C#N)c(C(F)(F)F)c3)C(=O)C2(C)C)cc1F + COc1c(OCCCN2CCOCC2)ccc2c3n(c(=NC(=O)c4cnc(N)nc4)nc12)CCN3 : 43.1

Tested system 616215-338-R-J1-PDC spheroids with HUVEC/MSC, viability; viability, T/C recorded for C=CC(=O)N1CCN(c2nc(=O)n(-c3c(C)ccnc3C(C)C)c3nc(-c4c(O)cccc4F)c(F)cc23)C(C)C1 (stereo unspecified) + Cc1nc(NC(=O)N2CCCC2C(N)=O)sc1-c1ccnc(C(C)(C)C(F)(F)F)c1 was 101

Simply: CCN1CCN(Cc2ccc(Nc3ncc(F)c(-c4cc(F)c5nc(C)n(C(C)C)c5c4)n3)nc2)CC1 + CC(Nc1ccc2c(c1)OCCn1cc(N3C(=O)OCC3C(F)F)nc1-2)C(N)=O , 616215-338-R-J1-PDC spheroids with HUVEC/MSC, viability, viability, T/C = 57.6

***
Measured on 616215-338-R-J1-PDC spheroids with HUVEC/MSC, viability, C[C@@H](NC(=O)c1ncnc(N)c1Cl)c1ncc(C(=O)Nc2cc(C(F)(F)F)c(Cl)cn2)s1 + COc1c(OCCCN2CCOCC2)ccc2c3n(c(=NC(=O)c4cnc(N)nc4)nc12)CCN3 has a documented viability, T/C of 32.2

# value of viability, T/C, 616215-338-R-J1-PDC spheroids with HUVEC/MSC, viability, item CNC(=O)c1ccc(N2C(=S)N(c3ccc(C#N)c(C(F)(F)F)c3)C(=O)C2(C)C)cc1F + CC(Nc1ccc2c(c1)OCCn1cc(N3C(=O)OCC3C(F)F)nc1-2)C(N)=O = 102

# C#Cc1c(F)ccc2cc(O)cc(-c3ncc4c(N5CC6CCC(C5)N6)nc(OCC56CCCN5CC(F)C6)nc4c3F)c12 (stereo unspecified) + COc1c(OCCCN2CCOCC2)ccc2c3n(c(=NC(=O)c4cnc(N)nc4)nc12)CCN3 with 616215-338-R-J1-PDC spheroids with HUVEC/MSC, viability: viability, T/C is 30.9
